- system.tested: T1, VEGFR-1-Fc (human, UniProt P17948 27-331)
- T1 construct: domain: first three Ig domains; expressed in Drosophila S2 cells, purified on Protein A sepharose; also called VEGFR-1-Fc fusion protein; not shown: Fc fragment from the Signal-pIgPlus vector
- test.protocol: receptor-Fc IP
assay.endpoint: binding result

11-1 (ligand) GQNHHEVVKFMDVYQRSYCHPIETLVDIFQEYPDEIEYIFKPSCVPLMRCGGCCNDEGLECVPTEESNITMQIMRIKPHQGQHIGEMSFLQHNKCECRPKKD :: binds
72-7 (ligand) GQNHHEVVKSIDNEWRKTQCMPREVCIDVGKEFGVATNTFFKPPCVSVYRCGGCCNSEGLQCVPTEESNITMQIMRIKPHQGQHIGEMSFANHTSCRCMSKLD :: no binding
12-9 (ligand) GQNHHEVVKFMDVYQRSYCHPIETLVDIFQEFGVATNTFFKPPCVSVYRCGGCCNDEGLECVPTEESNITMQIMRITVPLSQGPKPVTISFLQHNKCECRPKKD :: binds
61-14 (ligand) GQNHHEVVKFMDVYQRSYCHPREVCIDVGKEYPDEIEYIFKPSCVPLMRCGGCCNDEGLECMNTSTSYLSKTLFEITVPLSQGPKPVTISFANHTSCRCMSKLD :: no binding
